assay: inhibitors of hydroxyurea-induced Chk1 phosphorylation, primary screen, imaging, HeLa, phospho-Chk1 nuclear intensity (AID 1187); note: test concentration not given here
assay_context: hydroxyurea-induced phospho-Chk1 immunofluorescence imaging, higher = more signal
Answer each item with its documented z-score.
Numbers only.

Some solved cases for reference:
molecule: Cc1ccc(S[C@]2(C(=O)NCCN3CCOCC3)CC(=O)N(Cc3cc(C(F)(F)F)cc(C(F)(F)F)c3)[C@@H]2c2ccc(CO)cc2I)cc1
z-score: -0.0538
//
molecule: O=C(O)[C@@]1(Cc2ccccc2)N=C(c2ccc(OCCCO)cc2)O[C@H]1c1ccccc1
z-score: -0.224

For every item below, please supply its z-score.
1. C=C[C@@H](COC(C)=O)N(Cc1ccccc1[N+](=O)[O-])S(=O)(=O)c1ccc(Br)cc1
2. C=CCC(OC(C)=O)[C@@H]1[C@@H](N(Cc2cccc3ccccc23)C(=O)c2cccc3ccccc23)c2cc(OCCCO)ccc2N1C(=O)c1ccc2ccccc2n1 (some centres not stated)
3. COCCOC(=O)N1C(=O)[C@@]2(c3cc(C#CCNC(N)=O)ccc31)[C@H](c1ccccc1OCCO)N1[C@H](c3ccccc3)[C@H](c3ccccc3)OC(=O)[C@H]1[C@@H]2C(N)=O
4. COCC1=C2[C@@H](CCc3ccccc3)OB(O)C[C@@H]2[C@@H]2C(=O)N(Cc3ccccc3)C(=O)[C@@H]2C1
5. COC(=O)C(CC#Cc1ccc2c(c1)[C@]1(C(=O)N2)[C@H](c2ccc(OCCO)cc2)N2[C@H](c3ccccc3)[C@H](c3ccccc3)OC(=O)[C@H]2[C@@H]1C(=O)NC[C@H](O)c1ccccc1)C(=O)OC

Output line:
1: -0.567; 2: 0.545; 3: -0.266; 4: 0.381; 5: 0.364

---

assay: HepG2 liver cancer cell viability effects, profiling panel, resazurin fluorescence, 24 h, PK04 Diversity Set (AID 1172); note: test concentration not given here
assay_context: higher = more signal
reported_metric: z-score
Give bare numbers.

Example cases with answers are listed next.
compound: COC(=O)C[C@@H]1C[C@H](C)[C@]2(O1)C(=O)N(Cc1ccccc1)c1ccc(NC(C)=O)cc12
readout_value: -0.873
//
compound: [N-]=[N+]=NCc1ccccc1C[C@]1(C(=O)O)N=C(c2ccc(OCCCO)cc2)O[C@H]1c1ccccc1
readout_value: 0.922
//
compound: COCCOC(=O)N1C(=O)[C@@]2(c3cc(C#CCC(C(=O)OC)C(=O)OC)ccc31)[C@H](C(=O)N1CCN(c3ncccn3)CC1)[C@H]1C(=O)O[C@H](c3ccccc3)[C@H](c3ccccc3)N1[C@@H]2c1ccc(OCCO)cc1
readout_value: 1.36
//
compound: CS(=O)(=O)CCOC(=O)C1=CC(c2ccc(CO)cc2)=CC(C2CC2)N(Cc2cc3c(cc2Br)OCO3)C=C1C(=O)OCCS(C)(=O)=O (stereo not drawn)
readout_value: -0.311
//
compound: O=C1OCCC=C[C@H]2OC34C=CCN(Cc5ccccc5)C(=O)[C@H]3N(CCCO)C(=O)[C@@H]4C12 (stereo partly drawn)
readout_value: 0.35
//
compound: COCC(=C=CC[C@@H](O)c1ccc(CO)o1)CCO
readout_value: 0.59
//
compound: CS(=O)(=O)CCOC(=O)C1=CC(CCCO)=CC(c2cccs2)N(Cc2cc3c(cc2Br)OCO3)C=C1C(=O)OCCS(C)(=O)=O (stereo not drawn)
readout_value: 1.13

Attention now shifts to the item below.
Input line: Tell me z-score reported for COC(=O)c1ccc(C(O)C2C=CC3C(=O)N(C)C(=O)C3N2NC(=O)OC(C)(C)C)o1 (stereo not drawn)
Output line: -0.784

---

tgt: E3 ubiquitin-protein ligase XIAP (Homo sapiens) (UniProt P98170)
Sequence (P98170 whole entry, looked up): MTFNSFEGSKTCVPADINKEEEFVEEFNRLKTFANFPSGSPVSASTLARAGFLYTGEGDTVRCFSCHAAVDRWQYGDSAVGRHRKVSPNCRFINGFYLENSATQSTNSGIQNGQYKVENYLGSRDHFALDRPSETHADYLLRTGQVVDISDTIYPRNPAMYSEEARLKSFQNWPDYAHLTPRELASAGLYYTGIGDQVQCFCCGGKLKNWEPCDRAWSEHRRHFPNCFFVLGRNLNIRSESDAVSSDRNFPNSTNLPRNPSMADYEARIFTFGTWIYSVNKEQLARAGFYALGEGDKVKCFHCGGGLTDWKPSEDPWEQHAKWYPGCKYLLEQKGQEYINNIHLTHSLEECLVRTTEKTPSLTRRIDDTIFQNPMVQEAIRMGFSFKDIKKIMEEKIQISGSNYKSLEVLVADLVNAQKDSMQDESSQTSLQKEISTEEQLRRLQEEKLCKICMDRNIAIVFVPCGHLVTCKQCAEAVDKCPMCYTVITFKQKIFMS
assay: XIAP binders, primary screen, biophysical, small-molecule microarray, fluorescence 635 nm (AID 1181);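 note: score merges 667 nm emission and signal to noise over triplicate slides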
assay_context: small-molecule microarray binding, higher = more signal
Please use 1 (yes) whenever composite z-score is not below 0.02, and 0 (no) whenever it is.

mol: O=C1O[C@H](c2ccccc2)[C@H](c2ccccc2)N2[C@H]1[C@@H](C(=O)Nc1nc3ccccc3s1)[C@]1(C(=O)Nc3ccccc31)[C@H]2c1ccc(O)cc1
group_label: 0 (no)
--
mol: CCOC(=O)C[C@H]1[C@H](OC(=O)Cc2ccc3c(c2)OCO3)[C@@H](NC(=O)c2ccc(-c3ccccc3)cc2)c2cc(OCCCO)ccc2N1C(=O)c1ccccc1
group_label: 0 (no)
--
mol: O=C(O)[C@H]1C[C@H]2C(=O)NCC(=O)N2[C@H]1c1ccc(O)cc1
group_label: 0 (no)

Input line: # bool: composite z-score of `NCCCCCNC(=O)[C@H]1C[C@H]2C(=O)NCC(=O)N2[C@H]1c1cccc(OCCO)c1` >= 0.02
Output line: 0 (no)

Input line: // inclusive: composite z-score at least 0.02? input: `CCCN1C(=O)[C@@]2(CCC(=O)OC(C)(C)C)N=C(c3ccc(OCCCO)cc3)O[C@H]2c2ccccc21`
Output line: 1 (yes)

Input line: Item `C=CC[C@@H](OC(=O)Nc1ccc(OC)cc1)c1ccc(O)c2ccccc12` with composite z-score of 0.02 or above?
Output line: 1 (yes)

Input line: Exam item: decide whether the reported composite z-score for `COC(=O)C(CC#Cc1ccc2c(c1)[C@]1(C(=O)N2)[C@H](c2ccc(OCCO)cc2)N2[C@H](c3ccccc3)[C@H](c3ccccc3)OC(=O)[C@H]2[C@@H]1C(=O)NC[C@H](O)c1ccccc1)C(=O)OC` is at least 0.02.
Output line: 1 (yes)

---

assay: E. coli DRC41 culture turbidity changes, primary screen, E. coli filamentation inducer project, strain DRC41, OD650, 48 h (AID 1152);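 note: E. coli MC1000 strain DRC41 lacking acrAB efflux pump and sulA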
assay_context: E. coli DRC41 (acrAB sulA), higher = more signal, called active from +8 up or from −8 down
Grouping by measured z-score is done with the following cut points: bin A: < 0.1; bin B: ≥ 0.1 and < 0.9; bin C: ≥ 0.9

Consider the following illustrative entries.
compound: C=CC(=C)C1=CCO[C@@H]1[C@H]1CCCN1S(=O)(=O)c1ccccc1[N+](=O)[O-]
group_label: bin B
--
compound: O=C1O[C@H](c2ccccc2)[C@H](c2ccccc2)N2[C@H]1[C@@H](C(=O)O)[C@]1(C(=O)Nc3ccc(C#CC4=CCCCC4)cc31)[C@H]2c1ccc(OCCO)cc1
group_label: bin A
--
compound: CC(C)NC(=O)[C@@H]1c2ccccc2C(=O)N(Cc2ccccc2)[C@H]1c1ccc(CO)cc1
group_label: bin A
--
compound: CC(C)N1C(=O)C[C@@](C(=O)NCc2ccccc2)(c2ccc([N+](=O)[O-])cc2)[C@H]1c1ccc(CO)cc1
group_label: bin C
--
compound: CCOC(=O)C1=CC[C@@H](c2ccccc2Cl)N(S(=O)(=O)c2ccc(C)cc2)C1
group_label: bin A
--
compound: CC(C)(C)OC(=O)CC[C@@]1(C(=O)NCCN2CCOCC2)N=C(c2ccc(OCCCO)cc2)O[C@@H]1c1ccccc1
group_label: bin C

Input line: Hi there! Could you help me figure out the category for CCCCCN1CC=CC23O[C@@H]4/C=C\CCCOC(=O)C4[C@H]2C(=O)N(CCCCCCO)[C@@H]3C1=O (some centres undefined) please?
Output line: bin C

Input line: Assign a category based on measured z-score for `CC(=O)NCCCC[C@@H]1NC(=O)[C@H]2C[C@@H](C(=O)NCCCCCC[N+](C)(C)C)[C@@H](c3cccc(OCCO)c3)N2C1=O` and give only the class name.
Output line: bin C

Input line: Class for CC(C)(C)N1CC=CC23O[C@@H]4/C=C\CCCOC(=O)C4[C@H]2C(=O)N(CCO)[C@@H]3C1=O (some centres undefined) ?
Output line: bin B

Input line: Kindly identify the class of CCC(CC)C(O)C1C=CC2C(=O)N(c3ccccc3)C(=O)C2N1Nc1ccc(C#N)cc1 (centres undefined) .
Output line: bin A

Input line: Would you mind sorting `O=C1N(CCS(=O)(=O)c2ccccc2)Cc2ccccc2C[C@]12N=C(c1ccc(OCCCO)cc1)O[C@@H]2c1ccccc1` into the appropriate category?
Output line: bin B

Input line: // bin(item) where item = C=CC(COC(C)=O)NS(=O)(=O)c1ccc(Br)cc1 (centres undefined)
Output line: bin A

Input line: Band of `Cc1ccc(S[C@]2(C(=O)O)CC(=O)N(C3Cc4ccccc4C3)[C@@H]2c2ccc(CO)cc2I)cc1` ?
Output line: bin A

Input line: Which bin, given its z-score, does `CC(C)C(=C=CC[C@H](O)c1ccccc1OCCO)C[C@H](O)c1ccccn1` occupy?
Output line: bin B

Input line: Please let me know in which category the item `C[C@]1(C(=O)NCc2ccccc2)c2ccccc2C(=O)N(Cc2ccc(OC(F)(F)F)cc2)[C@H]1c1ccc(CO)cc1` belongs.
Output line: bin C

Input line: Which category fits this record: `O=C1C=CC(=O)[C@@H]2CC(COc3ccccc3)=C3[C@@H](CCc4ccccc4)OB(O)C[C@@H]3[C@H]12`
Output line: bin A

Input line: Bin? `COc1cc(CO)ccc1OC(C)=O`
Output line: bin C

Input line: Please let me know in which category the item `COC(=O)[C@]1(Cc2ccccc2N=[N+]=[N-])N=C(c2ccc(OCCCO)cc2)O[C@@H]1c1ccccc1N=[N+]=[N-]` belongs.
Output line: bin A

Input line: Category of `COc1ccc(CCNC(=O)[C@@]2(Sc3ccc(C)cc3)CC(=O)N(Cc3ccccc3Cl)[C@@H]2c2ccc(CO)cc2I)cc1` , please.
Output line: bin B

Input line: Could you place `C=C(COC)C(=O)CC[C@@H](OC(=O)c1cccnc1)c1ccc(CO)o1` in its proper category? Many thanks.
Output line: bin B

Input line: Would you mind sorting `O=C1O[C@@H](c2ccccc2)[C@@H](c2ccccc2)N2[C@@H](c3ccc(O)cc3)[C@]3(C(=O)Nc4ccc(C#CC5(O)CCCCCC5)cc43)[C@@H](C(=O)N3CCCCCCC3)[C@H]12` into the appropriate category?
Output line: bin B

Input line: Lab note: which band did C[C@H]1NC(=O)[C@H](Cc2ccccc2)NC(=O)[C@@]23C(=O)N[C@@H](Cc4ccccc4)C2[C@H](C)[C@@]2(C)O[C@H]2C3/C=C/C/C=C\CNC1=O (some centres undefined) land in?
Output line: bin B
